This section presents compounds with their documented combination Emax values.
- System: KM-H2 (Hodgkin's Lymphoma)
- experimental protocol: combination Emax (second highest fraction inhibited in the dose matrix, 72 h); higher = more inhibition; extreme values may be limits of the assay
# respond with the number and nothing more

Some solved entries appear below for comparison.
INSERT INTO results (compound, target_or_system, quantity, result_number) VALUES
  ('C[C@@H]1COCCN1c1cc(C2([S@](C)(=N)=O)CC2)nc(-c2ccnc3[nH]ccc23)n1 [AZD6738] + O=C(c1cc(Cc2n[nH]c(=O)c3ccccc23)ccc1F)N1CCN(C(=O)C2CC2)CC1 [Olaparib] (first compound max 10 µM, 7x7, partner max 10 µM)', 'KM-H2 (Hodgkin''s Lymphoma)', 'combination Emax', 0.785),
  ('C[C@@H](c1ccc2nccn2c1)n1nnc2ncc(-c3cnn(C)c3)nc21 [Savolitinib] + CC1(C)CCC(CN2CCN(c3ccc(C(=O)NS(=O)(=O)c4ccc(NCC5CCOCC5)c([N+](=O)[O-])c4)c(Oc4cnc5[nH]ccc5c4)c3)CC2)=C(c2ccc(Cl)cc2)C1 [Venetoclax] (first compound max 1 µM, 7x7, partner max 1 µM)', 'KM-H2 (Hodgkin''s Lymphoma)', 'combination Emax', 0.15);

Now take the following compound into account.
# combination Emax of CC1(C)CCC(CN2CCN(c3ccc(C(=O)NS(=O)(=O)c4ccc(NCC5CCOCC5)c([N+](=O)[O-])c4)c(Oc4cnc5[nH]ccc5c4)c3)CC2)=C(c2ccc(Cl)cc2)C1 [Venetoclax] + COc1cc(Nc2ncc3c(n2)-c2ccc(Cl)cc2C(c2c(F)cccc2OC)=NC3)ccc1C(=O)O [Alisertib] (first compound max 1 µM, 7x7, partner max 10 µM) = 0.448

====

- Tested on: TGBC24TKB (Biliary Tract Carcinoma);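 note: after 72 h of two-drug dosing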
- experimental protocol: Bliss excess, mean over the matrix (fraction); higher = more synergy
quantity: Bliss excess
# respond with the number and nothing more

INSERT INTO results (compound, quantity, result_number) VALUES
  ('COc1cccc(OCCCN)c1-c1cc(Nc2cnc(C#N)cn2)n[nH]1 [Prexasertib] + C=CCn1c(=O)c2cnc(Nc3ccc(N4CCN(C)CC4)cc3)nc2n1-c1cccc(C(C)(C)O)n1 [AZD1775] (first compound max 1 µM, partner max 1 µM)', 'Bliss excess', 0.0429),
  ('CCN(CCO)CCCOc1ccc2c(Nc3cc(CC(=O)Nc4cccc(F)c4)[nH]n3)ncnc2c1 [AZD2811] + O=C(c1cc(Cc2n[nH]c(=O)c3ccccc23)ccc1F)N1CCN(C(=O)C2CC2)CC1 [Olaparib] (first compound max 1 µM, 7x7, partner max 10 µM)', 'Bliss excess', -0.0102),
  ('Cn1cnc2c(F)c(Nc3ccc(Br)cc3Cl)c(C(=O)NOCCO)cc21 [Selumetinib] + CC(C)n1c(=O)n(C)c2cnc3cc(F)c(-c4ccc(OCCCN5CCCCC5)nc4)cc3c21 [AZD1390] (first compound max 10 µM, 7x7, partner max 0.3 µM)', 'Bliss excess', -0.109),
  ('Cc1c2c(nn1C)CSCc1cc(n(C)n1)CSc1cc(c3ccccc3c1)OCCCc1c(C(=O)O)n(C)c3c-2c(Cl)ccc13 [AZD5991] + C[C@@H](Nc1cc(F)cc(F)c1)c1cc(C(=O)N(C)C)cc2c(=O)cc(N3CCOCC3)oc12 [AZD8186] (first compound max 1 µM, 7x7, partner max 3 µM)', 'Bliss excess', 0.0027),
  ('Cc1c2c(nn1C)CSCc1cc(n(C)n1)CSc1cc(c3ccccc3c1)OCCCc1c(C(=O)O)n(C)c3c-2c(Cl)ccc13 [AZD5991] + CC1(C)CCC(CN2CCN(c3ccc(C(=O)NS(=O)(=O)c4ccc(NCC5CCOCC5)c([N+](=O)[O-])c4)c(Oc4cnc5[nH]ccc5c4)c3)CC2)=C(c2ccc(Cl)cc2)C1 [Venetoclax] (first compound max 1 µM, 7x7, partner max 1 µM)', 'Bliss excess', -0.0051);

# Bliss excess of NC1(C(=O)N[C@@H](CCO)c2ccc(Cl)cc2)CCN(c2ncnc3[nH]ccc23)CC1 [Capivasertib] + Cn1cnc2c(F)c(Nc3ccc(Br)cc3Cl)c(C(=O)NOCCO)cc21 [Selumetinib] (first compound max 10 µM, 7x7, partner max 10 µM) = 0.132

# Bliss excess of Cc1cc2ncnn2cc1Nc1ncc2c(n1)n(C1CCOCC1)c(=O)n2C [AZD7648] + C=CCn1c(=O)c2cnc(Nc3ccc(N4CCN(C)CC4)cc3)nc2n1-c1cccc(C(C)(C)O)n1 [AZD1775] (first compound max 10 µM, partner max 1 µM) = 0.0098

====

- System: U-266 (Plasma Cell Myeloma)
- experimental protocol: combination Emax (second highest fraction inhibited in the dose matrix, 72 h); higher = more inhibition; extreme values may be limits of the assay
quantity: combination Emax
# respond with the number and nothing more

Some solved entries appear below for comparison.
INSERT INTO measurements (molecule, result_number) VALUES
  ('N#Cc1cnc(Nc2cc(NC[C@H]3CNCCO3)c(C(F)(F)F)cn2)cn1 [SRA737] + C=CCn1c(=O)c2cnc(Nc3ccc(N4CCN(C)CC4)cc3)nc2n1-c1cccc(C(C)(C)O)n1 [AZD1775] (first compound max 10 µM, partner max 1 µM)', 0.599),
  ('C[C@@H]1COCCN1c1cc(C2([S@](C)(=N)=O)CC2)nc(-c2ccnc3[nH]ccc23)n1 [AZD6738] + O=C(c1cc(Cc2n[nH]c(=O)c3ccccc23)ccc1F)N1CCN(C(=O)C2CC2)CC1 [Olaparib] (first compound max 10 µM, 7x7, partner max 10 µM)', 0.584);

# combination Emax of CCN(CCO)CCCOc1ccc2c(Nc3cc(CC(=O)Nc4cccc(F)c4)[nH]n3)ncnc2c1 [AZD2811] + C=CCn1c(=O)c2cnc(Nc3ccc(N4CCN(C)CC4)cc3)nc2n1-c1cccc(C(C)(C)O)n1 [AZD1775] (first compound max 1 µM, partner max 1 µM) = 0.605

====

- System: HPAC (Pancreatic Carcinoma)
- experimental protocol: combination Emax (second highest fraction inhibited in the dose matrix, 72 h); higher = more inhibition; extreme values may be limits of the assay
Tag: yes if measured combination Emax is not below 0.2, no if it is.

Use the examples below as a reference point.
INSERT INTO measurements (compound, assigned_category) VALUES
  ('Cc1cc2ncnn2cc1Nc1ncc2c(n1)n(C1CCOCC1)c(=O)n2C [AZD7648] + O=C(c1cc(Cc2n[nH]c(=O)c3ccccc23)ccc1F)N1CCN(C(=O)C2CC2)CC1 [Olaparib] (first compound max 10 µM, 7x7, partner max 10 µM)', 'no'),
  ('CN(C)CCCOc1ccc(-c2ccc3ncc4c(c3c2)n(C2CCOCC2)c(=O)n4C)cn1 [AZD0156] + C[C@@H]1COCCN1C2=NC(=NC(=C2)C3(CC3)[S@](=N)(=O)C)C4=C5C=CNC5=NC=C4 [AZD6738] (first compound max 1 µM, 7x7, partner max 10 µM)', 'yes'),
  ('CN(CCO)CC[C@H](CSc1ccccc1)Nc1ccc(S(=O)(=O)NC(=O)c2ccc(N3CCC([C@@H](O)c4ccccc4-c4ccc(Cl)cc4)CC3)cc2)cc1S(=O)(=O)C(F)(F)F [AZD4320] + C1CN(CCC1(C(=O)N[C@@H](CCO)C2=CC=C(C=C2)Cl)N)C3=NC=NC4=C3C=CN4 [Capivasertib] (first compound max 1 µM, 7x7, partner max 3 µM)', 'no'),
  ('CC1(C)CCC(CN2CCN(c3ccc(C(=O)NS(=O)(=O)c4ccc(NCC5CCOCC5)c([N+](=O)[O-])c4)c(Oc4cnc5[nH]ccc5c4)c3)CC2)=C(c2ccc(Cl)cc2)C1 [Venetoclax] + C1CN(CCC1(C(=O)N[C@@H](CCO)C2=CC=C(C=C2)Cl)N)C3=NC=NC4=C3C=CN4 [Capivasertib] (first compound max 1 µM, 7x7, partner max 3 µM)', 'no'),
  ('COc1cccc(OCCCN)c1-c1cc(Nc2cnc(C#N)cn2)n[nH]1 [Prexasertib] + C=CCn1c(=O)c2cnc(Nc3ccc(N4CCN(C)CC4)cc3)nc2n1-c1cccc(C(C)(C)O)n1 [AZD1775] (first compound max 1 µM, partner max 1 µM)', 'yes'),
  ('COc1cc2c(cc1OCCCCCOc1cc3c(cc1OC)C(=O)N1C=C(C)C[C@H]1C=N3)N=C[C@@H]1CC(C)=CN1C2=O [SG3199] + O=C(c1cc(Cc2n[nH]c(=O)c3ccccc23)ccc1F)N1CCN(C(=O)C2CC2)CC1 [Olaparib] (first compound max 0.001 µM, 7x7, partner max 10 µM)', 'no'),
  ('COc1nnc2ccc(N3CCC(c4ccc(OCCN5CCN(C)C(=O)[C@H]5C)cc4)CC3)nn12 [AZD5153] + C=CCn1c(=O)c2cnc(Nc3ccc(N4CCN(C)CC4)cc3)nc2n1-c1cccc(C(C)(C)O)n1 [AZD1775] (first compound max 1 µM, partner max 1 µM)', 'yes'),
  ('CC1(C)CCC(CN2CCN(c3ccc(C(=O)NS(=O)(=O)c4ccc(NCC5CCOCC5)c([N+](=O)[O-])c4)c(Oc4cnc5[nH]ccc5c4)c3)CC2)=C(c2ccc(Cl)cc2)C1 [Venetoclax] + C[C@@H]1COCCN1C2=NC(=NC(=C2)C3(CC3)[S@](=N)(=O)C)C4=C5C=CNC5=NC=C4 [AZD6738] (first compound max 1 µM, 7x7, partner max 10 µM)', 'yes'),
  ('CC1(C)CCC(CN2CCN(c3ccc(C(=O)NS(=O)(=O)c4ccc(NCC5CCOCC5)c([N+](=O)[O-])c4)c(Oc4cnc5[nH]ccc5c4)c3)CC2)=C(c2ccc(Cl)cc2)C1 [Venetoclax] + COc1cc(Nc2ncc3c(n2)-c2ccc(Cl)cc2C(c2c(F)cccc2OC)=NC3)ccc1C(=O)O [Alisertib] (first compound max 1 µM, 7x7, partner max 10 µM)', 'yes');

Alright, here's another compound for you.
QUERY: Is it the case that CC1(C)CCC(CN2CCN(c3ccc(C(=O)NS(=O)(=O)c4ccc(NCC5CCOCC5)c([N+](=O)[O-])c4)c(Oc4cnc5[nH]ccc5c4)c3)CC2)=C(c2ccc(Cl)cc2)C1 [Venetoclax] + CCN(CCO)CCCOc1ccc2c(Nc3cc(CC(=O)Nc4cccc(F)c4)[nH]n3)ncnc2c1 [AZD2811] (first compound max 1 µM, 7x7, partner max 1 µM) has combination Emax reaching or exceeding 0.2?
RESULT: yes
